assay: gradient 5% acetonitrile 3 min, to 50% in 2 min, to 85% in 15 min, held 3 min, 100 µL/min; settings: column: Zorbax Extend-C18 2.1 x 50 mm; eluents: water / acetonitrile, 0.1% formic acid
// classify: if (RP-LC retention time < 900 s) y else n

Decide: RP-LC retention time of O=C(c1ccc(-c2noc(C3CC3)n2)cc1)N1CCN(c2nc3cccnc3o2)CC1 strictly below 900 s?
y

Decide: RP-LC retention time of O=S(=O)(c1ccc(Cl)cc1)N1CCC2(CC1)NCCN=C2NCc1ccc(F)cc1 strictly below 900 s?
y

Decide: RP-LC retention time of Cc1ccc(NC(=O)N2CCc3cn(C)c4cccc(c34)C2)cc1 strictly below 900 s?
y

Decide: RP-LC retention time of CCOC(=O)c1cccc(N2C=C(C#N)S(=O)(=O)c3ccc(C)cc32)c1 strictly below 900 s?
n

Decide: RP-LC retention time of CCOc1ccc(NC(=O)N2CCCN(c3ncccc3-c3nc(C4CC4)no3)CC2)cc1 strictly below 900 s?
n

Decide: RP-LC retention time of CCN(Cc1ccccc1)c1ccc(-c2noc(CN3CCSCC3)n2)cn1 strictly below 900 s?
n
